# Tested on: MOLT-4 leukemia
# test.summary: NCI tumour cell line growth inhibition, 48 h
The reader will find reported TGI values listed item by item below.

Use the examples below as a reference point.
compound	observed
CSc1nc2nc(-c3ccccc3)c(C)c-2c2n1C(C)C(=O)N2 (stereo not drawn)	> 100 µM
CCCCCCCCOCC(COC(=O)CCCCCCC)OC(=O)CCCCCCC (stereo not drawn)	> 100 µM

Attention now shifts to the item below.
Ask: Recall the reported TGI of `CC[C@H](C)[C@H](NC(=O)[C@H]1CCCCN1C)C(=O)N(C)[C@H](C[C@@H](OC(C)=O)c1nc(C(=O)NC23CC(C(=O)OC)(C2)C3)cs1)C(C)C` on MOLT-4 leukemia and write it down.
Result: > 32.5 µM

###

# Test system: SR leukemia
# test.summary: NCI tumour cell line growth inhibition, 48 h; in the data active = GI50 below about 0.43 µM; inactive = the rest
Just give me one of these, please: active, inactive

CN(C)c1ccc(-c2cc(-c3ccc(Nc4nc(Nc5ccc(Cl)cc5)nc(Nc5ccc(Cl)cc5)n4)cc3)nc(N)c2C#N)cc1 inactive
C(=Nc1nc(SCc2ccccc2)nc2[nH]ncc12)c1cccs1 inactive
S=C1SCN(Cc2ccccc2)CN1Cc1ccco1 inactive

Turning to the following compound.
Ask: Name the outcome recorded for `CNCc1ccc(-c2cc(-c3nc(-c4ccc(S(=O)(=O)C(C)C)cc4)cnc3N)on2)cc1` in the assay.
Result: active

###

# Tested on: SK-MEL-2 melanoma
# test.summary: NCI tumour cell line growth inhibition, 48 h
The reader will find reported TGI values listed item by item below.

Use the examples below as a reference point.
compound	TGI
COCCOC1=C(Cl)C(=O)c2ccccc2C1=O	9.35 µM
Cc1cc(Br)c(NC(=O)c2c(-c3c(Cl)cccc3Cl)noc2C)c(Br)c1	> 100 µM
COC(=O)C1=C(C(=O)OC)C2(c3ccccc3)OC1(c1ccccc1)c1cc3ccccc3cc12	3.13 µM
COc1ccc(OC)c2sc(N3C(=O)/C(=C/c4cccc(Oc5ccccc5)c4)N=C3c3ccccc3)nc12	> 100 µM
N#CC(C#N)=C/C=C(\Sc1ccc(Cl)cc1)c1ccc(F)cc1	> 63.6 µM

Ask: Input `N#Cc1ccccc1OCCOc1ccccc1C#N` , output reported TGI.
Result: > 100 µM

Ask: Input CCCC(=O)CC(C)C(=O)C(=O)NC12CC3CC(CC(C3)C1)C2 (stereo not drawn) , output reported TGI.
Result: > 100 µM

Ask: Input CC(=O)NC1C(OCC(=O)NCCNc2ccc([N+](=O)[O-])c3[nH]c4ccccc4c(=O)c23)C(O)C(CO)OC1(C)OCc1ccccc1 (stereo not drawn) , output reported TGI.
Result: > 100 µM

###

# Tested on: T-47D breast
# test.summary: NCI tumour cell line growth inhibition, 48 h; in the data active = GI50 below about 0.43 µM; inactive = the rest
Where a SMILES comes first, the peptide text is derived from it. Bridges are numbered along the chain shown (N, C = ends). [ ]: non-standard residue; d: D form. aThr = C[C@H](O)[C@H](N)C(=O)O
Just give me one of these, please: active, inactive

compound	tgt	discrete.label
OCCCCC#Cc1ccccc1C#Cc1cccc(C(F)(F)F)c1	T-47D breast	inactive
CSc1nc2nc(-c3ccccc3)c(C)c-2c2n1C(C)C(=O)N2 (stereo not given)	T-47D breast	inactive
COc1ccccc1Oc1nccc(-c2c(-c3ccc(F)cc3)ncn2C2CCNCC2)n1	T-47D breast	inactive
O=C1c2cc3c(cc2-c2c1c1ccc(Cl)cc1c(=O)n2C[C@H](O)CO)OCO3	T-47D breast	active

Turning to the following compound.
Ask: Name the outcome recorded for CC(C)C[C@@H]1NC(=O)[C@@H]2CCCN2C(=O)[C@@H]2CCCN2C(=O)[C@H](CC(C)C)NC(=O)[C@H](CO)NC(=O)[C@H](CCCCN)NC(=O)[C@H]([C@H](C)O)NC(=O)[C@@H]2CSSC[C@@H](NC1=O)C(=O)N[C@@H](Cc1ccccc1)C(=O)N1CCC[C@H]1C(=O)N[C@@H](CC(=O)O)C(=O)NCC(=O)N[C@@H](CCCN=C(N)N)C(=O)N2 (cyclo(C[aThr]KSLPPL[dC]FPDGR); disulfide 1-9) in the assay.
Result: inactive

###

# Tested on: KM12 colon
# test.summary: NCI tumour cell line growth inhibition, 48 h
The reader will find reported TGI values listed item by item below.

Use the examples below as a reference point.
compound	TGI
O=C(CCc1cc(O)cc(O)c1)NCCc1cc(O)cc(OCc2ccccc2)c1	> 100 µM
COC(=O)c1c(C)cccc1/C=C1\Cc2ccc(C)c(C)c2C1=O	> 100 µM
c1ccc(COC[C@H]2O[C@@H](c3ccccc3)C[C@@H](OCc3ccccc3)C2OCc2ccccc2)cc1 (stereo partly specified)	> 10 µM
[B]C(=O)NC(CC(C)C)C(=O)NCC(=O)NC1c2ccsc2C(=O)C1O (stereo unspecified) (tested in a mixture with another compound)	> 100 µM
C#Cc1ccc(-n2c(/C=C/c3ccc(O)cc3)nc3ncccc3c2=O)cc1	60.3 µM

Ask: Input `COc1cc(OC)c(OC)cc1/C=C/c1nc2ccccc2s1` , output reported TGI.
Result: > 100 µM

###

# Test system: UACC-62 melanoma
# test.summary: NCI tumour cell line growth inhibition, 48 h
measurement.label: TGI

Use the examples below as a reference point.
compound	tgt	TGI
CCOC(=O)C1S(=O)(=O)OCCOS1(=O)=O	UACC-62 melanoma	> 100 µM
c1ccc(COC[C@H]2O[C@@H](c3ccccc3)C[C@@H](OCc3ccccc3)C2OCc2ccccc2)cc1 (stereo partly drawn)	UACC-62 melanoma	> 10 µM
COc1ccc(-c2c(C3=NCCCN3)nnn2-c2ccccc2)cc1	UACC-62 melanoma	> 100 µM

Ask: Input O=C1C(Cl)N(c2ccccc2Cl)C1c1c[nH]c2ccccc12 (stereo not drawn) , output reported TGI.
Result: > 100 µM

Ask: Input `CCN(CC)c1ccc2nc3ccc(=[N+](CC)CC)cc-3oc2c1` , output reported TGI.
Result: 4.33 µM

Ask: Input `O=C(CCCC(=O)Nc1ccc(Cl)cc1Cl)CC(=O)c1ccc2ccccc2c1` , output reported TGI.
Result: > 100 µM

Ask: Input `COC(=O)[C@@H]1[C@@H]2NC(=S)N[C@@]1(C)Oc1ccccc12` , output reported TGI.
Result: > 100 µM

Ask: Input `CSc1nncc(-c2cc3c(c(SC)n2)CCCC3)n1` , output reported TGI.
Result: > 100 µM

###

The reader will find reported TGI values listed item by item below.
# System: UO-31 renal
# test.summary: NCI tumour cell line growth inhibition, 48 h

compound	observed
COC(=O)c1cc(S(=O)(=O)NC2=NCC(C)NN2)c(S)cc1Cl (configuration not stated)	> 100 µM
Cc1cc(N(CCC#N)CCC#N)ccc1/C(N=Nc1ccccc1)=N\NC(=O)c1cc(Cl)ccc1O	41.3 µM
CC(SC(=S)N1CCOCC1)C(=O)Nc1nnc(-c2ccc(Cl)cc2)o1 (configuration not stated)	> 100 µM
Cc1ccc(OCC2OC(n3cnc4c(Cl)nc(Nc5cc(Cl)cc(Cl)c5)nc43)CC2Oc2ccc(C)cc2)cc1 (configuration not stated)	> 100 µM
O=C(c1ccccc1)[C@H]1Nc2ccc(Cl)cc2[C@H]2CCC[C@@H]12	> 100 µM
CCOC(=O)C1S(=O)(=O)OCCOS1(=O)=O	> 100 µM

Ask: Recall the reported TGI of CCOC(=O)C1(C)CCC(C(C(=O)O)C(=O)O)CC1=O (configuration not stated) on UO-31 renal and write it down.
Result: > 100 µM

Ask: Recall the reported TGI of `N#Cc1ccc(Sc2nc3ccccc3[nH]2)cc1` on UO-31 renal and write it down.
Result: > 100 µM

Ask: Recall the reported TGI of `NNC(=O)C(=O)NN=C(C(Cl)(Cl)CO)C(Cl)(Cl)CO` on UO-31 renal and write it down.
Result: > 100 µM

###

# System: LOX IMVI melanoma
# test.summary: NCI tumour cell line growth inhibition, 48 h
The reader will find reported TGI values listed item by item below.

Use the examples below as a reference point.
COc1cc(OC)c(OC)cc1/C=C/c1nc2ccccc2s1 > 100 µM
C(=Nc1nc(SCc2ccccc2)nc2[nH]ncc12)c1cccs1 > 100 µM

Ask: Input `CN(NC1=NCCO1)c1ccc2ccccc2c1` , output reported TGI.
Result: > 100 µM

Ask: Input `CCO/C=C1\SC(=S)N(c2ccc(OCC)cc2)C1=O` , output reported TGI.
Result: > 100 µM

Ask: Input `CCc1ccc(Nc2cc(C)c3ccc(O)cc3n2)cc1` , output reported TGI.
Result: 18.5 µM

Ask: Input `O=C(Nn1c(-c2ccccc2)nc2ccccc2c1=O)c1ccc(Cl)cc1` , output reported TGI.
Result: > 100 µM

Ask: Input `O=C1c2cc3c(cc2-c2c1c1ccc(Cl)cc1c(=O)n2C[C@H](O)CO)OCO3` , output reported TGI.
Result: 0.0781 µM

Ask: Input `Clc1ccc(C=Nc2ccc(Oc3ccc(Cl)cc3)c(Cl)c2)cc1` , output reported TGI.
Result: 39.1 µM

Ask: Input `O=C(CCc1cc(O)cc(O)c1)NCCc1cc(O)cc(OCc2ccccc2)c1` , output reported TGI.
Result: > 100 µM
